Target: purified recombinant human PARP (Homo sapiens, UniProt P09874)
Construct: purchased Trevigan (Gaithersburg, Md.)
Sequence (P09874 whole entry): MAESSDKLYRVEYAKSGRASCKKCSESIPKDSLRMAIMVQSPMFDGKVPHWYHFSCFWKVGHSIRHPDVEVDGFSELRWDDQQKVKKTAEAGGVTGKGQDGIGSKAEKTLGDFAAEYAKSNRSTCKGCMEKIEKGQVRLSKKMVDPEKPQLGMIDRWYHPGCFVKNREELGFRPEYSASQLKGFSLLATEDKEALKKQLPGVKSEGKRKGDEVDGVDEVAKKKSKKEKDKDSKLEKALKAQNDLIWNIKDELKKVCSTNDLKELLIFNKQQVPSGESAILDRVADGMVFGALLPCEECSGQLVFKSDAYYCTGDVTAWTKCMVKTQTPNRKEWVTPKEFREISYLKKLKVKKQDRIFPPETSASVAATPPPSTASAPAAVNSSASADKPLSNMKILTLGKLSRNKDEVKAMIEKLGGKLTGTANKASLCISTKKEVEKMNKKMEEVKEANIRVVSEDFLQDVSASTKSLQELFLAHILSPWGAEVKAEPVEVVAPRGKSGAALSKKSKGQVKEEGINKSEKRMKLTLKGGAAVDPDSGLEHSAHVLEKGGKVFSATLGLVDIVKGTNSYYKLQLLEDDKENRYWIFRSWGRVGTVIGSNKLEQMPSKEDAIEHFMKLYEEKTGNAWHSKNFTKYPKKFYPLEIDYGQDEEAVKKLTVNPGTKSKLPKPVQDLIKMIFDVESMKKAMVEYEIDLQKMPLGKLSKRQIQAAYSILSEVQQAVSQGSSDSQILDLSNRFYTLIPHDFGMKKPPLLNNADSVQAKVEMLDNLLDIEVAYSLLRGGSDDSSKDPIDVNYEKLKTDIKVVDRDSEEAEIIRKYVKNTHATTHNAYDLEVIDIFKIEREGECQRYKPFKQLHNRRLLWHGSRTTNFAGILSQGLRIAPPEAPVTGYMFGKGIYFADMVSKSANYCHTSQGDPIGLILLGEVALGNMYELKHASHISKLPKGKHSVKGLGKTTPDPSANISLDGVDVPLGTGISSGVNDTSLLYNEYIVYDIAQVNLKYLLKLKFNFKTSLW
Experiment: PARP enzyme assay (IC50)
Format: biochemical
Details: approximate IC50 values, [3H]NAD, read-out: IC50
MEASURED ATTRIBUTE: log10(IC50) (log10 of the value in nM)
Values are log10 of IC50 in nM.

O=C1CNC(=O)c2cccc3[nH]cc1c23; 1.54

Can you share its log10(IC50)? I mean this compound: O=C1NCCn2c(CN3CCCCC3)nc3cccc1c32
2.90

Which log10(IC50) value is on record for O=C(CN1CCC(N2CCCC2)CC1)Nc1cnc2c(c1)[nH]c(=O)c1ccccc12 ?
2.13

# query: log10(IC50) of entry O=C1NCCc2c[nH]c3cccc1c23
2.56

Query: log10(IC50); subject: CN(CCC1CCCN1C)C(=O)c1cccc(-c2nc3cccc4c3n2CCNC4=O)c1 (centres unmarked)
3.09

Sample O=C1NCCn2c(C=C(c3ccccc3)c3ccccc3)nc3cccc1c32 — what was its log10(IC50)?
2.52

I have this compound here, O=C1NN=C(CN2CCCC2)c2c[nH]c3cccc1c23 , and I need its recorded log10(IC50).
1.52

Dear colleague, I am looking for the recorded log10(IC50) of the following compound: CC(C)(C)OC(=O)n1cc2c3c(cccc31)C(=O)NN=C2
3.08

So what's the measured log10(IC50) for this one? O=C1NCCn2c(CN(Cc3ccccc3)Cc3ccccc3)nc3cccc1c32
2.34

What does the data say about its log10(IC50)? Entry: O=C1NN=C(c2ccccc2)c2c[nH]c3cccc1c23
1.32

Looking for the measured log10(IC50) of CC(C)N1CCN(c2ccc3[nH]c(=O)c4ccccc4c3n2)CC1 , can you help?
2.25

Which log10(IC50) is reported for this compound? CN(Cc1nc2cccc3c2n1CCNC3=O)C1CCCCC1
2.66

* * *

Biological target: purified recombinant human PARP (Homo sapiens)
Construct: purchased Trevigan (Gaithersburg, Md.)
Assay: PARP enzyme assay (IC50)
Type: biochemical
Settings: approximate IC50 values, [3H]NAD, read-out: IC50
This section presents compounds with their documented pIC50 values.
Please report pIC50 as the negative decimal logarithm of the molar concentration, giving only the number.

Cc1ccc(-c2nc3cccc4c3n2CCNC4=O)cc1; 6.96
O=C1NCCn2c(-c3cc(F)cc(F)c3)nc3cccc1c32; 7.21

Fill blank: measured pIC50 of the compound CCOC(=O)[C@@H]1C[C@H]1c1nc2cccc3c2n1CCNC3=O is ____.
6.97

* * *

Target: purified recombinant human PARP (Homo sapiens, UniProt P09874)
Construct: purchased Trevigan (Gaithersburg, Md.)
Test: PARP enzyme assay (IC50)
Format: biochemical
Conditions: approximate IC50 values, [3H]NAD, read-out: IC50
In this section, each of the molecules is paired with its reported pIC50.
Note: pIC50 values are expressed as the negative base-10 logarithm of concentration in M.

Answered cases to consult:
CN(Cc1nc2cccc3c2n1CCNC3=O)c1ccccc1; 6.55
O=C1NN=C(CN2CCC(N3CCCC3)CC2)c2c[nH]c3cccc1c23; 7.01

Look at this molecule and give its reported pIC50. CC(C)(C)OC(=O)Cn1c(Br)c2c3c(cccc31)C(=O)NN=C2
4.62

Given O=C1NCCn2c(-c3ccco3)nc3cccc1c32 , state its recorded pIC50.
6.97

These entries and their values trace back to patent US7235557B2.
